- measured.target: AhLap RTX adhesin, carbohydrate-binding module (AhLapCBM3) (Aeromonas hydrophila)
- run.description: isothermal titration calorimetry at […] °C; […] also blocks binding to cells
- Parameters: gene AHA_3491; AhLapCBM3, three-domain construct Asn3455 to Gly3940 (extender domain, split domain and CBM), His-tagged
reported.property: Kd

Need Kd of C[C@@H]1OC(O)[C@@H](O)[C@H](O)[C@@H]1O (stereo partly drawn) [L-fucose] , thanks.
~386 µM
